molecular target: Antigen DN-IV-Ag# (Fapon Biotech Inc.) (dengue virus); test: indirect ELISA on coated DN-IV-Ag#, antibody diluted 9 times

BINDER	OD450 (reference 630 nm)
Mutation 1 (antibody, V domains shown) VH: EVQLQQPGPELVKPGASVKMSCKASGYTFTSTVIHWVRQKPGQGLEWIGYMNPYNDGLKYNEKFIGKAILTSDKSSSTAYMQLSSLTSEDSAVYYCTKEGLFYVMDYWGQGTSVTVSS VL: QIVLTQSPAIMSASPGEKVTMTCSATSSISYMHWYQQKSGTSPKRWIYDTSKLASGVPVRFSGSGSGTSYSLTISSMEAEDAATYFCQQWRSDLPTFGAGTKLELKR	1.07 OD
